Cited source for all entries: ChEMBL document CHEMBL1133519

- experimental target: Vasopressin V2 receptor (Homo sapiens)
- assay method text: Concentration which inhibit [3H]AVP binding to human Vasopressin V2 receptor coded HeLa cells by 50%
- Assay type: cell-based
assay metric: IC50 (nM)
Please respond with the number in nM and leave the unit unwritten.

Reported IC50, compound Cc1ccccc1OCC(=O)Nc1ccc(C(=O)N2CCCCc3cc(Cl)ccc32)c(C)c1 : ____
0.95

====

- experimental target: Vasopressin V2 receptor (Homo sapiens, UniProt P30518)
- Sequence (P30518 whole entry): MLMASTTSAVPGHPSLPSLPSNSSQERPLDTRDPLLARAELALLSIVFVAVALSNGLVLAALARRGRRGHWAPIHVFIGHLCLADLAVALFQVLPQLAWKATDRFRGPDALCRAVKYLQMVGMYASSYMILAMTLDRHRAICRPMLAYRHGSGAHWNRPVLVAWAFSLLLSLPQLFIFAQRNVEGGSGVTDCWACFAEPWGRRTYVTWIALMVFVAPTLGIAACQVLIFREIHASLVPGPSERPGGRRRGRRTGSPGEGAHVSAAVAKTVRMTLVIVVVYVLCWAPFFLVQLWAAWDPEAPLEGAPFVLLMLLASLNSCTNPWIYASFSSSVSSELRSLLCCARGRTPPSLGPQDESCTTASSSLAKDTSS
- assay method text: Inhibition of [3H]AVP binding to human Vasopressin V2 receptor expressed in HeLa cells
- Format: cell-based
assay metric: pIC50
Recall that pIC50 is obtained by taking minus log10 of the concentration measured in molar.

These solved cases illustrate the format of a correct answer.
C=CCNc1ccc(C(=O)N2CCCCc3ccccc32)c(Cl)c1 :: 8.23
CCCNc1ccc(C(=O)N2CCCCc3ccccc32)c(Cl)c1 :: 7.74
CC1CCN(c2ccc(C(=O)N3CCCCc4ccccc43)c(Cl)c2)C1 (stereo unspecified) :: 7.29

Give the reported pIC50 for CCCCCNc1ccc(C(=O)N2CCCCc3ccccc32)c(Cl)c1 (system: Vasopressin V2 receptor (Homo sapiens, UniProt P30518)).
7.51
